# subjectOfTest: T1, CEACAM1 (Sino Biological) (human, UniProt P13688 35-428, limits assumed)
# T1 construct: may be the same as CEACAM1-HIS; also called hCEACAM1; biotinylated soluble CEACAM1
# T1 sequence: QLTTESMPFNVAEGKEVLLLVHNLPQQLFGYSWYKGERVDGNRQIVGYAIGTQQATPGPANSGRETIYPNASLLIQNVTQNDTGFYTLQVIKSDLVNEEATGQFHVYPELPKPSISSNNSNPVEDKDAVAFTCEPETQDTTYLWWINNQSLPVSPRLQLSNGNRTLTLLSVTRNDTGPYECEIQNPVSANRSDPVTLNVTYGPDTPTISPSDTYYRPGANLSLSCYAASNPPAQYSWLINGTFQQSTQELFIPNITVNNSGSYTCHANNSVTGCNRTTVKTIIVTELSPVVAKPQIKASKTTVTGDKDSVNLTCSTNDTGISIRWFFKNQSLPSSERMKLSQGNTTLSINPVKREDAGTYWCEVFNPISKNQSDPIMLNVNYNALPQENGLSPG
# assay: SPR multi-cycle, IgG on Protein A
Labelling: kon reported below 40000 M⁻¹ s⁻¹ becomes 1 (yes); at or above becomes 0 (no).

Here's what some known entries look like.
* He9/L17 (antibody, IgG4, V domains shown, IgG4 S241P, kappa; also called He9 / 17) VH: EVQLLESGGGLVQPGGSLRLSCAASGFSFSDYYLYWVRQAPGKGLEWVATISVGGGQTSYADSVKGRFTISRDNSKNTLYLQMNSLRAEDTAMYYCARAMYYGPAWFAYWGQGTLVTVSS VL: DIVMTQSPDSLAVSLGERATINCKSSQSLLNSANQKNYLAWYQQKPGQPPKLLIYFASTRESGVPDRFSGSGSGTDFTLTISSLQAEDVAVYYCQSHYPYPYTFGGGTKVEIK | 1 (yes)
* Parent VH/L1 (antibody, IgG4, V domains shown, IgG4 S241P, kappa; also called VHp/L1; VH2 N56Q / 1) VH: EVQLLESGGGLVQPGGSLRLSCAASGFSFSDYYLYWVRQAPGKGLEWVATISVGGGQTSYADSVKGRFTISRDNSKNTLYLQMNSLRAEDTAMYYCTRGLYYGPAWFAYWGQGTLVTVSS VL: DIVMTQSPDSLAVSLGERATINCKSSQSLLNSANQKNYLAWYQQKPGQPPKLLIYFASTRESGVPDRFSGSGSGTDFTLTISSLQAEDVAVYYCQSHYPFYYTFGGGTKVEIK | 1 (yes)
* Parent VH/L18 (antibody, IgG4, V domains shown, IgG4 S241P, kappa; also called VHp/L18; VH2 N56Q / 18) VH: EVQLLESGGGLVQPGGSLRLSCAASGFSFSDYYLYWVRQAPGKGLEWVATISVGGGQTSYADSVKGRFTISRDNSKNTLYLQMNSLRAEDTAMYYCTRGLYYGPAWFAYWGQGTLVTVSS VL: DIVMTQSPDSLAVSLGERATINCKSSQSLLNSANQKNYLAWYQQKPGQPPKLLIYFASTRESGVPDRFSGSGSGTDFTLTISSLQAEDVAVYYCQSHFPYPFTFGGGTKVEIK | 1 (yes)
* He4/L16 (antibody, IgG4, V domains shown, IgG4 S241P, kappa; also called He4 / 16) VH: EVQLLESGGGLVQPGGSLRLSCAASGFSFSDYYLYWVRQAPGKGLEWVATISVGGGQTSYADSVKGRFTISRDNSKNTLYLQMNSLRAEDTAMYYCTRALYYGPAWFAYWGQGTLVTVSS VL: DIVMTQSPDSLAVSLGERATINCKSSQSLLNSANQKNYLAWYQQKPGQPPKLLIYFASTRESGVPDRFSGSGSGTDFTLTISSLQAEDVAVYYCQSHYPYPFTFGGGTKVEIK | 1 (yes)

Query binder follows.
**Q:** For He9/L3 (antibody, IgG4, V domains shown, IgG4 S241P, kappa; also called He9 / 3) VH: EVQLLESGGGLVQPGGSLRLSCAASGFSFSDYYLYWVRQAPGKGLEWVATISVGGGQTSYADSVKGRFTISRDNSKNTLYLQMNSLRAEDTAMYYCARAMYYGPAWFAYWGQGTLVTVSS VL: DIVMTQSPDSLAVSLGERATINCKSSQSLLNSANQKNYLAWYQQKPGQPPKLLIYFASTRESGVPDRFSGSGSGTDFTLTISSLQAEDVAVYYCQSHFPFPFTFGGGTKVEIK , is the recorded kon below the cut-off of 40000 M⁻¹ s⁻¹?
**A:** 0 (no)
